This collection of values is drawn from patent US20110237503A1.

# targetOrSystem: T1, human glucose-dependent insulinotropic polypeptide receptor (hGIP-R) (human, UniProt P48546 22-466)
# T1 construct: whole, on cells; The cAMP assay uses the whole cells; also called glucose-dependent insulinotropic peptide receptor
# T1 sequence (looked up): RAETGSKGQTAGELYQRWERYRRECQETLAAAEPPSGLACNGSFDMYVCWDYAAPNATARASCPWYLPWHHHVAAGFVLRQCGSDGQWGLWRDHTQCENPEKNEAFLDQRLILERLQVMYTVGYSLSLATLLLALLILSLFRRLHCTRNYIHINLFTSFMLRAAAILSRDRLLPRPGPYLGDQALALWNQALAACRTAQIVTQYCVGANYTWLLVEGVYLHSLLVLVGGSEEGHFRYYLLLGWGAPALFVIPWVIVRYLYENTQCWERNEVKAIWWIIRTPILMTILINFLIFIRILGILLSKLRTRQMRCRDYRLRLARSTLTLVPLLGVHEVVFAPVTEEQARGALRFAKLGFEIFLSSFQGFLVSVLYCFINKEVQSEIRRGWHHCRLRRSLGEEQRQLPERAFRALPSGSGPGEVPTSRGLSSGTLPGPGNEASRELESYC
# assayOverview: SPA competition, [125I]GIP displacement, hGIP-R CHO-S membranes
Where no end group is shown, it is not given here. Side-chain parts run from the residue outwards. [ ]: non-standard residue; d: D form. maleimide = maleimide end of mPEG-20 kDa maleimide, which attaches the 20 kDa PEG to the Cys thiol; 1Nal = N[C@@H](Cc1cccc2ccccc12)C(=O)O; Aib = CC(C)(N)C(=O)O
assayEndpoint: Ki (nM)
Number in nM, nothing else.

binder: Y[Aib]EGTFTSDYSI[Aib]LDKIAQRA[1Nal]VQWLIA[Aib]KGKKQEWKHQITQ (not fully specified (C-terminus), Not PEGylated) [Example 1 (Aib2, Aib13, Nal22, Aib29 GIP analog, 42 residues)]
assayEndpoint: Ki
observedMeasurement: 0.044
//
binder: Y[Aib]EGTFTSDYSI[Aib]LDKIAQRA[1Nal]VQWLIA[Aib]KGKKQEWKHQITQC([acetamide-mPEG 20 kDa])C([acetamide-mPEG 20 kDa])-NH2
assayEndpoint: Ki
observedMeasurement: 9.22

The recorded Ki for Y[Aib]EGTFTSDYSI[Aib]LDKIAQRAFVQWLIA[Aib]KGKKQEWKHQITQ (not fully specified (C-terminus), Not PEGylated) [Example 2 (Aib2, Aib13, Aib29 GIP analog, 42 residues)] is 0.023

According to the records, this binder Y[Aib]EGTFTSDYSI[Aib]LDKIAQRAFVQWLIA[Aib]KGKKQEWKHQITQC([maleimide-mPEG 20 kDa])C([maleimide-mPEG 20 kDa])-NH2 [Aib2, Aib13, Aib29, Cys43(PEG20K), Cys44(PEG20K)-GIP (Example 3, PEGylated with mPEG-MAL)] displays Ki of 9.79

Item: Y[Aib]EGTFTSDYSI[Aib]LDKIAQRA[1Nal]VQWLIA[Aib]KGKKQEWKHQITQC([maleimide-mPEG 20 kDa])C([maleimide-mPEG 20 kDa])-NH2 (also called Ex 4) [Aib2, Aib13, Nal22, Aib29, Cys43(PEG20K), Cys44(PEG20K)-GIP (Example 4, PEGylated with mPEG-MAL)] | Ki: 8.23
